Source of measurements: patent US20250382305A1

Would you mind telling me the reported pIC50 of each entry?
# System: Total ATXN3 (tATXN3) protein
# test: Endogenous Total ATXN3 (tATXN3) Protein Assay (MSD immunoassay of cell lysates)
# Type: cell-based
# cond: average IC50, total ATXN3 protein in cell lysate after 48 h with compound (Table 1)
pIC50: −log10 of the molar value.

[in] Report pIC50, nothing else, for this molecule: N[C@@H]1CCCCCC[C@@H]1c1sc2c(NCc3cccs3)cc(Cl)nc2c1Br [Compound 101]
[out] < 6.00

[in] Please supply the value of reported pIC50 for the item N[C@@H]1CCC[C@H]1c1sc2c(NCc3cccs3)cc(Cl)nc2c1I [Compound 154]
[out] < 6.00

[in] Please give measured pIC50 of the following entry: N[C@H]1CCCC[C@]1(O)c1sc2c(NCc3cccs3)cc(Cl)nc2c1Cl [Compound 31]
[out] < 6.00

[in] For Cc1c([C@@H]2CCCC[C@H]2N)sc2c(NCc3ccco3)nc(Cl)nc12 [Compound 59] , write its pIC50.
[out] < 6.00

###

Exercise: state measured pIC50 for each of the compounds provided.
# Tested on: Total ATXN3 (tATXN3) protein
# test: Endogenous Total ATXN3 (tATXN3) Protein Assay (MSD immunoassay of cell lysates)
# Type: cell-based
# cond: average IC50, total ATXN3 protein in cell lysate after 48 h with compound (Table 1)
pIC50: −log10 of the molar value.

[in] Output pIC50 of N[C@@H]1CCCCCC[C@H]1c1sc2c(NCc3cccs3)cc(Cl)nc2c1I
[out] < 6.00

[in] Retrieve pIC50 measured for N[C@@H]1CCCCCC[C@H]1c1cc2nc(Cl)cc(NCc3cccs3)c2s1 and print it.
[out] < 6.00

[in] Read off the recorded pIC50 for N[C@@H]1CCCCC[C@@H]1c1sc2c(NCc3cccs3)cc(Cl)nc2c1Cl
[out] < 6.00

[in] Input N[C@@H]1CCCC[C@H]1c1sc2c(NCc3cccs3)cc(Cl)nc2c1C1CC1 , output reported pIC50.
[out] < 6.00

[in] Write down pIC50 measured for item N[C@H]1CCC[C@@H]1c1sc2c(NCc3ccccc3)cc(Cl)nc2c1Br
[out] 6.52 to 7.52

[in] Please give measured pIC50 of the following entry: Cc1c([C@H]2CC=CC[C@@H]2N)sc2c(NCc3ccco3)nc(Cl)nc12
[out] ≥ 7.52

[in] Give a short answer stating reported pIC50 for N[C@@H]1CC=CC[C@H]1c1sc2c(NCc3ccncc3)nc(Cl)nc2c1Cl .
[out] < 6.00

[in] Please give measured pIC50 of the following entry: CC#CCNc1cc(Cl)nc2c(I)c([C@@H]3CC=CC[C@H]3N)sc12
[out] 6.52 to 7.52

[in] # return recorded pIC50 for entry N[C@@H]1CCCO[C@H]1c1sc2c(NCc3cccs3)cc(Cl)nc2c1Br
[out] < 6.00

[in] Name the recorded pIC50 of the item Cc1c([C@@H]2OCCC[C@H]2N)sc2c(NCc3cccs3)cc(Cl)nc12 (single isomer, unassigned) [Compound 45] in your answer.
[out] ≥ 7.52

[in] Answer with reported pIC50 of N[C@H]1CC=CC[C@@H]1c1c(I)c2nc(Cl)nc(NCc3ccccc3)c2n1C(F)F
[out] 6.52 to 7.52

[in] For the compound Cc1c([C@@H]2OCCC[C@H]2N)sc2c(NCc3ccccc3)cc(Cl)nc12 , give its measured pIC50 value.
[out] 6.52 to 7.52

[in] Identify measured pIC50 associated with N[C@H]1CCC[C@H]1c1sc2c(NCc3cccs3)cc(Cl)nc2c1Cl
[out] 6.52 to 7.52

[in] Tell me measured pIC50 for N[C@@H]1COCC[C@H]1c1sc2c(NCc3nccs3)cc(Cl)nc2c1Cl please.
[out] 6.52 to 7.52

[in] Specify pIC50 for N[C@@H]1CC=CC[C@H]1c1sc2c(NCc3cccs3)cc(Cl)nc2c1C#CCCCO.N[C@H]1CC=CC[C@@H]1c1sc2c(NCc3cccs3)cc(Cl)nc2c1C#CCCCO (mixture of isomers) and stop.
[out] ≥ 7.52

[in] Query pIC50 for N[C@H]1CCCC[C@@H]1c1sc2c(NCc3ccccc3)nc(Cl)nc2c1Br
[out] ≥ 7.52

###

# Tested on: Total ATXN3 (tATXN3) protein
# test: Endogenous Total ATXN3 (tATXN3) Protein Assay (MSD immunoassay of cell lysates)
# Type: cell-based
# cond: average IC50, total ATXN3 protein in cell lysate after 48 h with compound (Table 1)
pIC50: −log10 of the molar value.
measure: pIC50

[in] Report pIC50 for CC1=C(C)C[C@H](N)[C@@H](c2sc3c(NCc4ccco4)cc(Cl)nc3c2Cl)C1
[out] ≥ 7.52

[in] For N[C@@H]1CCNCC[C@H]1c1sc2c(NCc3cccs3)cc(Cl)nc2c1Br.N[C@H]1CCNCC[C@@H]1c1sc2c(NCc3cccs3)cc(Cl)nc2c1Br (mixture of isomers) , write its pIC50.
[out] < 6.00

[in] Identify the reported pIC50 for the following entry. N[C@H]1CCCC[C@@H]1c1sc2c(NCc3ccncc3)cc(Cl)nc2c1Br
[out] ≥ 7.52

[in] Retrieve pIC50 measured for Cc1c([C@H]2CCCC[C@@H]2N)sc2c(NCc3cccs3)cc(Cl)nc12 and print it.
[out] ≥ 7.52

[in] Provide pIC50 value for the following molecule: N[C@H]1CCC[C@]1(F)c1sc2c(NCc3ccco3)cc(Cl)nc2c1Cl
[out] < 6.00

[in] Note pIC50 for the molecule shown: Cc1c([C@H]2CC=C(C(N)=O)C[C@@H]2N)sc2c(NCc3cccs3)cc(Cl)nc12
[out] 6.52 to 7.52

[in] Provide only the value of recorded pIC50 for N[C@@H]1CCC[C@@H](O)[C@H]1c1sc2c(NCc3cccs3)cc(Cl)nc2c1Br
[out] 6.52 to 7.52

[in] Specify measured pIC50 for N[C@H]1CCCCCC[C@@H]1c1sc2c(NCc3cccs3)cc(Cl)nc2c1Cl .
[out] 6.52 to 7.52

[in] // fetch pIC50 given entry [2H]C1=C([2H])C([2H])([2H])[C@H](c2sc3c(NC([2H])([2H])c4ccccc4)cc(Cl)nc3c2C)[C@@H](N)C1([2H])[2H]
[out] 6.52 to 7.52

[in] Indicate the recorded pIC50 value for this molecule: N[C@H]1CC=CC[C@@H]1c1sc2c(NCc3ccncc3)nc(Cl)nc2c1Cl
[out] ≥ 7.52

[in] Indicate the recorded pIC50 value for this molecule: N[C@H]1CC=CC[C@@H]1c1c(I)c2nc(Cl)cc(NCc3cccs3)c2n1C(F)F
[out] 6.52 to 7.52

[in] Respond only with pIC50 recorded for N[C@H]1CCCC[C@H]1c1sc2c(NCc3cccs3)cc(Cl)nc2c1Br
[out] 6.00 to 6.52

[in] Tell me its pIC50 given N[C@H]1CC=CC[C@@H]1c1sc2c(NCc3ncco3)cc(Cl)nc2c1Cl as the entry.
[out] ≥ 7.52

[in] Look up and state reported pIC50 for N[C@H]1CCCC[C@]1(F)c1sc2c(NCc3cccs3)cc(Cl)nc2c1Cl
[out] 6.52 to 7.52

[in] Name the recorded pIC50 of the item N[C@@H]1C[C@@H]2C[C@@H]2C[C@H]1c1sc2c(NCc3cccs3)cc(Cl)nc2c1Br.N[C@H]1C[C@H]2C[C@H]2C[C@@H]1c1sc2c(NCc3cccs3)cc(Cl)nc2c1Br (mixture of isomers) in your answer.
[out] 6.52 to 7.52

###

# Tested on: Total ATXN3 (tATXN3) protein
# test: Endogenous Total ATXN3 (tATXN3) Protein Assay (MSD immunoassay of cell lysates)
# Assay type: cell-based
# cond: average IC50, total ATXN3 protein in cell lysate after 48 h with compound (Table 1)
Consider the following compounds; for each one, report its IC50.

[in] Give a short answer stating reported IC50 for Cc1c([C@H]2CC=CC[C@@H]2N)sc2c(NCc3cccs3)cc(Cl)nc12 .
[out] ≤ 30 nM

[in] Identify measured IC50 associated with N[C@H]1CC=CC[C@@H]1c1sc2c(NCc3ccsc3)cc(Cl)nc2c1Br
[out] ≤ 30 nM

[in] Using the record for N[C@@H]1CCCO[C@H]1c1sc2c(NCc3ccccc3F)cc(Cl)nc2c1Br.N[C@H]1CCCO[C@@H]1c1sc2c(NCc3ccccc3F)cc(Cl)nc2c1Br (mixture of isomers) , state its measured IC50.
[out] 30 to 300 nM

[in] State its IC50 for this compound: N[C@@H]1CCCCCC[C@H]1c1sc2c(NCc3cccs3)cc(Cl)nc2c1Cl
[out] > 1000 nM

[in] Give the reported IC50 for this compound. Cc1c([C@@H]2OCCC[C@H]2N)sc2c(NCc3ccco3)nc(Cl)nc12
[out] > 1000 nM

[in] Dear colleague, please send me the reported IC50 for C=Cc1c([C@H]2CC=CC[C@@H]2N)sc2c(NCc3cccs3)cc(Cl)nc12 when you can.
[out] 30 to 300 nM

[in] Give IC50 for N[C@@H]1COCC[C@H]1c1sc2c(NCc3ccccc3)cc(Cl)nc2c1Br.N[C@H]1COCC[C@@H]1c1sc2c(NCc3ccccc3)cc(Cl)nc2c1Br (mixture of isomers)
[out] 30 to 300 nM

[in] Supply recorded IC50 for N[C@H]1CCCCC[C@@H]1c1sc2c(NCc3cccs3)cc(Cl)nc2c1Cl here.
[out] 30 to 300 nM
